Let's look at some compounds and their measured Potentiation (%) at 10 µM.
Biological target: human D1 receptors (Homo sapiens, UniProt P21728)
Construct: endogenously expressed human D1 receptors in SK-N-MC cell line; host or cells: SK-N-MC human neuroblastoma cells
Sequence (P21728 whole entry): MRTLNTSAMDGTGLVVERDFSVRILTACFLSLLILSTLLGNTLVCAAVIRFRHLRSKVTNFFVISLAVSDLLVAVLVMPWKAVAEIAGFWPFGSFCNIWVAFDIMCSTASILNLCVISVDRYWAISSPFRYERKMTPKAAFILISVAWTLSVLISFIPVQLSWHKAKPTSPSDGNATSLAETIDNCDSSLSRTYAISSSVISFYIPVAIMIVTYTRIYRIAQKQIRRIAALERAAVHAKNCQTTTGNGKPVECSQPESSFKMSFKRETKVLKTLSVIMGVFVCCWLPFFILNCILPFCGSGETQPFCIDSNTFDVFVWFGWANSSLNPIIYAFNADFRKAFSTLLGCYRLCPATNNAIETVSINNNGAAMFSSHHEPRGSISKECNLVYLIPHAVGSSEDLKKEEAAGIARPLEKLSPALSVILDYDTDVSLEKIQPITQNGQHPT
Test: Allosteric modulation of human dopamine D1 receptors: dopamine-induced cAMP production (HTRF) in SK-N-MC cells
Type: cell-based
Conditions: potentiation of dopamine Emax, compound at 10 µM
Write it as a number; the unit % goes unstated.

// below: answered compounds
**Query** Tell me its Potentiation (%) at 10 µM given CS(=N)(=O)c1ccc(-c2ccccc2OC(F)F)cc1Cl (stereo not shown) [Id] as the entry.
**Result** 25

**Query** Using the record for CN=S(C)(=O)c1ccc(-c2ccccc2OC(F)F)cc1Cl (stereo not shown) [Ie] , state its measured Potentiation (%) at 10 µM.
**Result** 33

**Query** Please indicate Potentiation (%) at 10 µM recorded for CCS(=N)(=O)c1ccc(-c2ccccc2OC(F)F)cc1 (stereo not shown) [Ic]
**Result** 39

Pending compound:
**Query** # return recorded Potentiation (%) at 10 µM for input CN=S(C)(=O)c1ccc(-c2ccccc2OCF)cc1 (stereo not shown) [Ih]
**Result** 30
